TARGET_ENTITY: T1, human GITR expressed on cells (human, UniProt Q9Y5U5 26-241)
T1 sequence: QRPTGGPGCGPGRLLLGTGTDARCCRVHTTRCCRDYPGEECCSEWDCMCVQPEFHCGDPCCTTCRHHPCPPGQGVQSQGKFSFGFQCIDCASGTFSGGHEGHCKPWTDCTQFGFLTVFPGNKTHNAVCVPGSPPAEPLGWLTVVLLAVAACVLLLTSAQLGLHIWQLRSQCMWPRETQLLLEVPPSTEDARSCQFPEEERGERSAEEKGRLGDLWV
METHOD_SUMMARY: cell-based or functional assay
MEASURED_ENDPOINT: Average EC50 in human HT1080 (IL-8 induction) (pM)
Write down the numeric answer in pM and omit the unit.

INSERT INTO measurements (binder, measured_number) VALUES
  ('ABP41 (antibody, human IgG1, kappa, N297A, V domains shown, IgG1 N297A, bivalent; also called non-TM ABP corresponding to ABP8) VH: QVQLQESGPGLVKPSETLSLTCAVSGYSISSEYMWGWIRQPPGKGLEWIGLIYHSGKTYYNPSLKSRVTISVDTSKNQFSLKLSSVTAADTAVYYCAREADRGYGDYGGHHAFDIWGQGTMVTVSS VL: DIQMTQSPSSLSASVGDRVTITCGASQSISTYLNWYQQKPGKAPKLLIYSASSLESGVPSRFSGSGSGTDFTLTISSLQPEDFATYYCQQEYNTPPSFGGGTKVEIKR', 440),
  ('trimeric human GITR ligand (ligand, UniProt Q9UNG2 50-177, looked up) QLETAKEPCMAKFGPLPSKWQMASSEPPCVNKVSDWKLEILQNGLYLIYGQVAPNANYNDVAPFEVRLYKNKDMIQTLTNKSKIQNVGGTYELHVGDTIDLIFNSEHQVLKNNTYWGIILLANPQFIS', 430);

Now consider a different binder.
q: Recorded Average EC50 in human HT1080 (IL-8 induction) for ABP38 (antibody, human IgG1, kappa, N297A, V domains shown, IgG1 N297A, bivalent; also called non-TM ABP corresponding to ABP4/5) VH: QVQLQESGPGLVKPSETLSLTCAVSGYSISSGAGWGWIRQPPGKGPEWIGLIVHSGSTYYNPSLKSRVTISVDTSKNQFSLKLSSVTAADTAVYYCVLESVRGYGDYGGHHAFDIWGQGTMVTVSS VL: DIQMTQSPSSLSASVGDRVTITCRASKSIDSYLNWYQQKPGKAPKLLIYAASSLQSGVPSRFSGSGSGTDFTLTISSLQPEDFATYYCQQEYNTPPTFGGGTKVEIKR , please?
a: 330
